- protocol: ATG_Ets_CIS: Attagene CIS-FACTORIAL HepG2 Assay for human Erythroblast Transformation Specific (ETS) (AID 2282941)
- assay-conditions: HepG2 ETS cis-reporter transcription, actives raise or lower the signal
- Procedure: ATG_CIS is a cell-based, multiplexed-readout assay that uses HepG2, a human liver cell line, with measurements taken at 24 hours after chemical dosing in a 24-well plate.ATG_Ets_CIS is one of 52 assay component(s) measured or calculated from the ATG_CIS assay. […] This assay endpoint, ATG_Ets_CIS, was analyzed with bidirectional fitting relative to DMSO as the negative control and baseline of activity. […]
Calls of active or inactive are those of the source. The calls were made as follows: active = hit-call score of the fitted dose curve at least 0.9, where 1 is the maximum; inactive = score below 0.9.
Select the correct class. Options are True = active, False = inactive and nothing else.

CN1[C@@H]2CC(OC(=O)[C@H](CO)c3ccccc3)C[C@H]1[C@@H]1O[C@@H]12 (stereo not given in full)	False

Which outcome was assigned to COc1ccc(Cl)cc1C in this test? False

Also need O=C1C(c2[nH]c3ccc(S(=O)(=O)O)cc3c2O)=Nc2ccc(S(=O)(=O)O)cc21 , thanks. False

Record: O=C1NC(=O)c2ccccc21 False
